All values here come from patent US9199999B2.

- TARGET DESC: human kinase Mps-1 (Homo sapiens (Human))
- Sequence (P33981 whole entry): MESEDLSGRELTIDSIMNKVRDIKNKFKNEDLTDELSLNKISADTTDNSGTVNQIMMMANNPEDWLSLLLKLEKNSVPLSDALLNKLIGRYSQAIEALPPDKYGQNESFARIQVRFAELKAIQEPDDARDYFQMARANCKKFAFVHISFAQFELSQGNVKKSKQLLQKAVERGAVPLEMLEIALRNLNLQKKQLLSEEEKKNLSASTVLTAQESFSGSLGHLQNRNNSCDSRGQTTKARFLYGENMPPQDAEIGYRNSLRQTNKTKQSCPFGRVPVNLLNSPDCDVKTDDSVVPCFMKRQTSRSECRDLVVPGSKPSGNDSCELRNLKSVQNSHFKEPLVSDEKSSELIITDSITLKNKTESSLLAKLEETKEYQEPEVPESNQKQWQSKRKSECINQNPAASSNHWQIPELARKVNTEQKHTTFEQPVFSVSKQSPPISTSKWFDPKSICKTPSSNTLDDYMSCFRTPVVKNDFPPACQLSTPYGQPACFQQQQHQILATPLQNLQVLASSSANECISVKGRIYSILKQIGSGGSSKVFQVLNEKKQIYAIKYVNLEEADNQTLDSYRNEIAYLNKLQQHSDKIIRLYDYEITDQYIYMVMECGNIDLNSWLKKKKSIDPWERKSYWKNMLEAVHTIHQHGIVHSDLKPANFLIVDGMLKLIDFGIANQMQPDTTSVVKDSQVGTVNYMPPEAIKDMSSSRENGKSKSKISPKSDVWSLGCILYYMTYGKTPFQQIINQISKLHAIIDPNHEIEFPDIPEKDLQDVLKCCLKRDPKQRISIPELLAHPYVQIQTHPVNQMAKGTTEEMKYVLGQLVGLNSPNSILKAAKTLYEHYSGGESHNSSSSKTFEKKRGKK
- ASSAY SETUP: read-out: Mps-1 IC50; N-terminally GST-tagged human full length recombinant Mps-1; 10 μM ATP; 1 μM biotinylated peptide substrate; 60 min at 22° C.
pIC50: −log10 of the molar value.
VALUE TYPE: pIC50

>>> reading("OCC#Cc1cn2c(-c3ccc(-c4cnc(C5CC5)[nH]4)cc3)cnc2c(NCCC(F)(F)F)n1")
8.15

I: Cc1cc(-c2cnc3c(NCCC(F)(F)F)nc(C#CCO)cn23)ccc1C(=O)NC1(C)CC1
II: CC(C)CNc1nc(C#CCO)cn2c(-c3cccc(-c4cnc(C5CC5)[nH]4)c3)cnc12
III: OCC#Cc1cn2c(-c3ccc(-c4cnc(C5CC5)[nH]4)cc3)cnc2c(NCC2CCC2)n1
Please list the entries, largest pIC50 first. List each label, following the requested order.
III, I, II
(III: 8.28, I: 6.92, II: 6.28)
